Molecular target: T1, IL-6R-Fc 항원 (human, UniProt P08887 20-365, limits assumed)
T1 construct: domain: IL-6R full domain; Made in-house as IL-6R-Fc; also called IL-6R full; IL-6R full domain인 단백질; not shown: Fc part (vector pYK 604)
T1 sequence (looked up): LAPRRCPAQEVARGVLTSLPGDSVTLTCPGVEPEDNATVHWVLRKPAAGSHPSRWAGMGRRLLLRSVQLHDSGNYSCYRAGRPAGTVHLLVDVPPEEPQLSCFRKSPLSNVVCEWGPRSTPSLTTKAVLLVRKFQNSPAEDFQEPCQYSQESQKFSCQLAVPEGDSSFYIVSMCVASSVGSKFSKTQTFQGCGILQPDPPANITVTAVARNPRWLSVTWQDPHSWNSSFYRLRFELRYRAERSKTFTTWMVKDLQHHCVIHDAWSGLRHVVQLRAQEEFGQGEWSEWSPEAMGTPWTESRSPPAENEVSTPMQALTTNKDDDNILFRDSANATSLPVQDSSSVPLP
Assay: ELISA; IL-6R coated 100 ng/well; IgG at 25 nM; anti-Fab-HRP
measured metric: OD 490 nm (OD490)
// units = OD490; emit number, no label

Consider the reported OD 490 nm for these binders:
항 IL-6R 단클론 항체 B10 (antibody, V domains shown) VH: QVQLVESGGGLVQPGGSLRLSCAASGFIFDDYAMFWVRQVPGKGLEWVAGINWNGNGIGYGDSVRGRFIISRDNARNSLDLQMNSLRAEDTAVYYCARPSLYGGNSEFDLWGQGTLVTVSS VL: SQLVLTQPPSVSGAPGQTVTISCTGPTIGAGYDVHWYQQLPGAAPKLLIYGNLNRPSGVPDRFSGSKSGTSASLAITDLQAEDEADYYCHTYDSSLSGSWVFGGGTKLTVL
1.78
항 IL-6R 단클론 항체 A7 (antibody, V domains shown) VH: QMQLVESGGGLVQPGTSLRLSCAASGFKFEDYAMHWVRQAPGKGLEWVSGVSWNSGTIAYVDSVKGRFTISRDNAKNSLYLQMNSLRAEDTAVYYCARDFTYFYESSGYYAFDLWGQGTMVTVSS VL: SQLVLTQPPSVSGAPGQRVTISCTGTNSNIGAGYDVHWYQQVPGTTPKLLIYGNTNRPSGVPDRFSGSKSGTSASLAITGLQAEDGGDYYCQSFDSSLTGSVFGTGTKVTVL
2.84
항 IL-6R 단클론 항체 D2 (antibody, V domains shown) VH: QVQLVESGAEVKKPGSSVKVSCKGSGDTFPNYAINWVRQAPGQGPEWMGRIIPMLGTSDYAEKFQGRVTITADKSTNTAYMGLNSLRSEDTAVYYCVKGPRYYGTDSYYLEKWGQGTMVTVSS VL: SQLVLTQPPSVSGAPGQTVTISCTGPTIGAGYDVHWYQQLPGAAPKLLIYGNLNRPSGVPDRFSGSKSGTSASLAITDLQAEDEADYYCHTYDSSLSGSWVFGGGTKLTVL
1.94

Field: next binder
Req: Which value of OD 490 nm has been reported for 항 IL-6R 단클론 항체 F2 (antibody, V domains shown) VH: QVQLVESGAEVKKPGASVKVSCKASGYTFTNYYMHWVRQAPGQGLEWMGIINPSGGNTGYAQKFQGRVTMTRDMSTSTAYMELSSLRSEDTAVYYCARGLPWGENGLDVWGQGTTVTVSS VL: SQLVLTQPSSVSGAPGQTVTISCTGSSSNIGAGYDVHWYQQLPGTAPKVLIYGDSDRPSGVPDRFSGSKSATSASLAITGLQAEDEADYYCQSYDSSLSAYVFGTGTKVTVL in the records?
Resp: 2.89
